pKi: −log10 of the molar value.
D(2) dopamine receptor (Homo sapiens) measurements of pKi, listed per entry.
Sequence (P14416 whole entry): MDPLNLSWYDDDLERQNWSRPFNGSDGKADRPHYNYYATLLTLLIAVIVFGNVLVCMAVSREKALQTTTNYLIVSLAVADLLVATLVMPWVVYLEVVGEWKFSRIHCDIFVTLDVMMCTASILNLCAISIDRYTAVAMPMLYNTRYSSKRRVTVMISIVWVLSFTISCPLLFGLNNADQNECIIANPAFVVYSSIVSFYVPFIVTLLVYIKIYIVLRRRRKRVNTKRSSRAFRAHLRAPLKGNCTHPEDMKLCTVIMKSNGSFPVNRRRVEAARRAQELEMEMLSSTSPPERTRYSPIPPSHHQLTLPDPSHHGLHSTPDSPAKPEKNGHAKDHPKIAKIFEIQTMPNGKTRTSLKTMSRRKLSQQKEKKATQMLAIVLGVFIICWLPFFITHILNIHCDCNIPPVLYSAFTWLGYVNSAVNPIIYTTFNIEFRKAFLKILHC
Quantity: pKi

* Fc1ccc(N2CCN(CC[C@H]3CC[C@H](Nc4ncccn4)CC3)CC2)cc1 | 8.07
* c1ccc(N2CCN(C3CCC(Nc4ncccn4)CC3)CC2)cc1 (stereo in doubt; 20) | 6.49
* Clc1cccc(N2CCN(CC[C@H]3CC[C@H](Nc4ncccn4)CC3)CC2)c1Cl | 7.96
* c1ccc(N2CCN(CC[C@H]3CC[C@H](Nc4ncnc5ccccc45)CC3)CC2)cc1 | 8.49
* CCCN(CCC)CC[C@H]1CC[C@H](Nc2ncccn2)CC1 | 5.62
* COc1ccccc1N1CCN(CC[C@H]2CC[C@H](Nc3ncccn3)CC2)CC1 | 8.52
* c1cnc(N[C@H]2CC[C@H](CCN3CCN(c4nccs4)CC3)CC2)nc1 | 7.34
